- target under test: Coagulation factor X/antithrombin III (Homo sapiens) (UniProt P01008+P00742)
- protocol notes: Inhibition of human antithrombin 3/factor 10a assessed as 125 x 10^-6M CBS31.39 substrate hydrolysis at 2 x 10^-3M
- Assay type: protein-complex assay
inhibition reference
assay readout: inhibition (%)

[[record]]
smiles = "COc1ccc(-c2cc(=O)c3c(O)cc(O[C@@H]4O[C@H](CO[C@@H]5O[C@@H](C)[C@H](OS(=O)(=O)O)[C@@H](OS(=O)(=O)O)[C@H]5OS(=O)(=O)O)[C@@H](OS(=O)(=O)O)[C@H](OS(=O)(=O)O)[C@H]4OS(=O)(=O)O)cc3o2)cc1O"
assay_readout = "inhibition"
readout_unit = "%"
recorded_number = 50.7

[[record]]
smiles = "COc1ccc([C@@H]2CC(=O)c3c(O)cc(O[C@@H]4O[C@H](CO[C@@H]5O[C@@H](C)[C@H](OS(=O)(=O)O)[C@@H](OS(=O)(=O)O)[C@H]5OS(=O)(=O)O)[C@@H](OS(=O)(=O)O)[C@H](OS(=O)(=O)O)[C@H]4OS(=O)(=O)O)cc3O2)cc1O"
assay_readout = "inhibition"
readout_unit = "%"
recorded_number = 58.1

[[record]]
smiles = "C[C@H]1O[C@@H](OC[C@@H]2O[C@H](Oc3c(-c4ccc(OCCOS(=O)(=O)O)c(OCCOS(=O)(=O)O)c4)oc4cc(OCCOS(=O)(=O)O)cc(O)c4c3=O)[C@@H](OS(=O)(=O)O)[C@H](OS(=O)(=O)O)[C@H]2OS(=O)(=O)O)[C@@H](OS(=O)(=O)O)[C@@H](OS(=O)(=O)O)[C@@H]1OS(=O)(=O)O"
assay_readout = "inhibition"
readout_unit = "%"
recorded_number = 33.6

[[record]]
smiles = "C[C@H]1O[C@@H](OC[C@@H]2O[C@H](Oc3c(-c4ccc(OS(=O)(=O)O)c(OS(=O)(=O)O)c4)oc4cc(OS(=O)(=O)O)cc(OS(=O)(=O)O)c4c3=O)[C@@H](OS(=O)(=O)O)[C@H](OS(=O)(=O)O)[C@H]2OS(=O)(=O)O)[C@@H](OS(=O)(=O)O)[C@@H](OS(=O)(=O)O)[C@@H]1OS(=O)(=O)O"
assay_readout = "inhibition"
readout_unit = "%"
recorded_number = 33.1


###

- target under test: Coagulation factor X/antithrombin III (Homo sapiens) (UniProt P01008+P00742)
- protocol notes: Inhibition of human antithrombin 3/factor 10a assessed as 125 x 10^-6M CBS31.39 substrate hydrolysis at 0.5 x 10^-3M
- Type: protein-complex assay
inhibition reference
assay readout: inhibition

[[record]]
smiles = "C[C@H]1O[C@@H](OC[C@@H]2O[C@H](Oc3c(-c4ccc(OCCOS(=O)(=O)O)c(OCCOS(=O)(=O)O)c4)oc4cc(OCCOS(=O)(=O)O)cc(O)c4c3=O)[C@@H](OS(=O)(=O)O)[C@H](OS(=O)(=O)O)[C@H]2OS(=O)(=O)O)[C@@H](OS(=O)(=O)O)[C@@H](OS(=O)(=O)O)[C@@H]1OS(=O)(=O)O"
result = "20.3%"

[[record]]
smiles = "COc1ccc([C@@H]2CC(=O)c3c(O)cc(O[C@@H]4O[C@H](CO[C@@H]5O[C@@H](C)[C@H](OS(=O)(=O)O)[C@@H](OS(=O)(=O)O)[C@H]5OS(=O)(=O)O)[C@@H](OS(=O)(=O)O)[C@H](OS(=O)(=O)O)[C@H]4OS(=O)(=O)O)cc3O2)cc1O"
result = "39.7%"

[[record]]
smiles = "COc1ccc(-c2cc(=O)c3c(O)cc(O[C@@H]4O[C@H](CO[C@@H]5O[C@@H](C)[C@H](OS(=O)(=O)O)[C@@H](OS(=O)(=O)O)[C@H]5OS(=O)(=O)O)[C@@H](OS(=O)(=O)O)[C@H](OS(=O)(=O)O)[C@H]4OS(=O)(=O)O)cc3o2)cc1O"
result = "28.9%"


Sourced from ChEMBL document CHEMBL1649091
